Test system: cat eye
Assay: Irritative effect or ocular discomfort in the cat eye after topical application
Format: in vivo
Settings: dose 0.001% topical, first 2 hours, scale 0 (no discomfort) to 4 (maximal irritation, complete lid closure)
Can you tell me Degree of irritative effect for the items I'm about to list?
Answers are plain numbers.

Solved entries:
> print(dat)
                                   molecule  meas.value
1  CC(C)OC(=O)CCC/C=C\C[C@@H]1[C@@H](CC[C@@H](O)CCc2ccccc2)[C@H](O)C[C@@H]1O [Latanoprost, reference compound]         2.5
2  CCNC(=O)CCC/C=C\C[C@@H]1[C@@H](/C=C/[C@@H](O)CCc2ccccc2)[C@H](O)C[C@@H]1O [Bimatoprost, reference compound]         2.5

Now, please, on to the next molecule.
Provide only the value of recorded Degree of irritative effect for CCCCC[C@H](O)/C=C/[C@H]1[C@H](O)CC(=O)[C@@H]1CCCCCCC(=O)O [PGE1, reference compound]
4

====

Experiment: In vitro penetration rate across isolated human skin in modified Franz cells
Settings: 10% solution in pH 7.4 phosphate buffer (0.2 M), n=5
Can you tell me In vitro penetration rate (apparent flux), prodrug compounds for the items I'm about to list?
Numbers only, in mg/cm^2/h.

Solved entries:
> print(dat)
                                   compound          u  meas.value
1  CC(=O)O.CCN(CC)CCOC(=O)CCC/C=C\C[C@@H]1[C@@H](/C=C/[C@@H](O)COc2cccc(C(F)(F)F)c2)[C@H](O)C[C@@H]1O  mg/cm^2/h        0.91
2  CC(=O)O.CCN(CC)CCOC(=O)CCCC=CCC1C(O)CC(O)C1C=CC(O)COc1cccc(C(F)(F)F)c1 (centres unmarked)  mg/cm^2/h        0.86
3  CC(=O)O.CCN(CC)CCOC(=O)CCCC=CCC1C(=O)CC(O)C1C=CC(O)COc1ccccc1 (centres unmarked)  mg/cm^2/h        1.01
4  CC(=O)O.CCCCCC(O)C=C[C@H]1C(O)CC2OC(=CCCCC(=O)OCCN(CC)CC)C[C@@H]21 (some centres unmarked)  mg/cm^2/h        1.11
5  CC(=O)O.CCCCCC(O)C=C[C@H]1C(O)CC(=O)[C@@H]1CC=CCCCC(=O)OCCN(CC)CC (some centres unmarked)  mg/cm^2/h        1.10
6  CC(=O)O.CCN(CC)CCOC(=O)CCC/C=C\C[C@@H]1[C@@H](/C=C/[C@@H](O)CCc2ccccc2)[C@H](O)C[C@@H]1O  mg/cm^2/h        0.85
7  CC(=O)O.CCN(CC)CCOC(=O)CCC=C=CCC1C(O)CC(O)C1C=CC(O)COc1ccccc1 (centres unmarked)  mg/cm^2/h        0.81

Now, please, on to the next compound.
Provide only the value of recorded In vitro penetration rate (apparent flux), prodrug compounds for CC(=O)O.CCCCCC(C)(O)C=C[C@H]1C(O)CC(O)[C@@H]1CC=C=CCCC(=O)OCCN(CC)CC (some centres unmarked)
0.90

====

Experiment: In vitro penetration rate across isolated human skin in modified Franz cells
Conditions: 10% solution in pH 7.4 phosphate buffer (0.2 M), n=5
PROPERTY NAME: In vitro penetration rate (apparent flux), prodrug compounds (mg/cm^2/h)
One number for each entry, in mg/cm^2/h.

Solved entries:
> print(dat)
                                   molecule  meas.value
1  CC(=O)O.CCCCCC(O)C=CC1C(O)CC(=O)C1CCCCCCC(=O)OCCN(CC)CC (stereo not shown)        1.01
2  CC(=O)O.CCCCC(C)(C)C(O)C=C[C@H]1C(O)CC(=O)[C@@H]1CCCCC=CC(=O)OCCN(CC)CC (stereo partly shown)        0.88
3  CC(=O)O.CCCCCCCC(=O)C=C[C@H]1C(O)CC(O)[C@@H]1CC=CCCCC(=O)OCCN(CC)CC (stereo partly shown)        1.05

Now, please, on to the next molecule.
Provide only the value of recorded In vitro penetration rate (apparent flux), prodrug compounds for CC(=O)O.CCCCCC(O)C=C[C@H]1C(O)CC(O)[C@@H]1CC=CCCCC(=O)OCCN(CC)CC (stereo partly shown)
0.94

====

Test system: rabbit eye
Experiment: Conjunctival hyperemia in the rabbit eye after topical application
Type: in vivo
Conditions: dose 0.001% topical, first 2 hours, scale 0 (no hyperemia) to 4 (marked hyperemia with conjunctive chemosis)
Can you tell me Degree of irritative effect (conjunctival hyperemia) for the items I'm about to list?
Numbers only.

> print(dat)
                                   compound  assay.system  meas.value
1  CCCCC[C@H](O)/C=C/[C@H]1[C@H](O)CC(=O)[C@@H]1CCCCCCC(=O)O [PGE1, reference compound]    rabbit eye           4
2  CCCCC[C@H](O)/C=C/[C@H]1[C@H](O)CC(=O)[C@@H]1C/C=C\CCCC(=O)O [PGE2, reference compound]    rabbit eye           4
3  CC(=O)O.CCN(CC)CCOC(=O)CCC/C=C\C[C@@H]1[C@@H](/C=C/[C@@H](O)COc2cccc(C(F)(F)F)c2)[C@H](O)C[C@@H]1O    rabbit eye           1
4  CC(=O)O.CCN(CC)CCOC(=O)CCC/C=C\C[C@@H]1[C@@H](/C=C/[C@@H](O)CCc2ccccc2)[C@H](O)C[C@@H]1O    rabbit eye           1
5  CC(=O)O.CCN(CC)CCOC(=O)CCC/C=C\C[C@@H]1[C@@H](CC[C@@H](O)CCc2ccccc2)[C@H](O)C[C@@H]1O    rabbit eye           1

// input: 3 compounds below; output: Degree of irritative effect (conjunctival hyperemia) for each
1. CCNC(=O)CCC/C=C\C[C@@H]1[C@@H](/C=C/[C@@H](O)CCc2ccccc2)[C@H](O)C[C@@H]1O [Bimatoprost, reference compound]
2. CCCCC[C@H](O)/C=C/[C@@H]1[C@@H](C/C=C\CCCC(=O)O)[C@@H](O)C[C@H]1O [PGF2α, reference compound]
3. CC(=O)O.CCCCCC(O)C=C[C@H]1C(O)CC(O)[C@@H]1CC=CCCCC(=O)OCCN(CC)CC (some centres unmarked)

1. 2.5
2. 4
3. 1

====

Assay: In vitro penetration rate across isolated human skin in modified Franz cells
Conditions: 10% solution in pH 7.4 phosphate buffer (0.2 M), n=5
PROPERTY NAME: In vitro penetration rate (apparent flux), prodrug compounds (mg/cm^2/h)
One number for each entry, in mg/cm^2/h.

Solved entries:
> print(dat)
                                   molecule  meas.value
1  CC(=O)O.CCN(CC)CCOC(=O)CCCC=CCC1C(O)CC(O)C1C=CC(O)COc1cccc(Cl)c1 (stereo not shown)        0.92
2  CC(=O)O.CCCCC(C)(O)CC=C[C@H]1C(O)CC(=O)[C@@H]1CCCCCCC(=O)OCCN(CC)CC (stereo partly shown)        1.09

// input: 2 molecules below; output: In vitro penetration rate (apparent flux), prodrug compounds for each
1. CC(=O)O.CCN(CC)CCOC(=O)CCC/C=C\C[C@@H]1[C@@H](CC[C@@H](O)CCc2ccccc2)[C@H](O)C[C@@H]1O
2. CC(=O)O.CCCCCC(O)C=C[C@H]1C(O)CC(O)[C@@H]1CCCCCCC(=O)OCCN(CC)CC (stereo partly shown)

[0.95, 0.85]
